The measured values listed here are drawn from paper PMC4434323.

Measured binding signal (PBM E-score (-0.5 to 0.5)) of individual entries
Target: che-1 (C55B7.12) (Caenorhabditis elegans) (UniProt Q966L8)
Sequence: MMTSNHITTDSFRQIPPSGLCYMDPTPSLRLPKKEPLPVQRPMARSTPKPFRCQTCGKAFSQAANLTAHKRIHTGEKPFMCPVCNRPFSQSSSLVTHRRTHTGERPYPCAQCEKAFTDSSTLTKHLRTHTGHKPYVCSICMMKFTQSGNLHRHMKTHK
Keep the answer to the number alone.

Some entries whose results are on file:
GGGCTTCA (double strand) [8-mer GGGCTTCA]    0.493
AGGGCTTC (double strand) [8-mer AGGGCTTC]    0.497
ATGGCTTC (double strand) [8-mer ATGGCTTC]    0.495

With those in mind, consider the next sequence.
Query :: Write down the reported binding signal (PBM E-score (-0.5 to 0.5)) of GGCTTCAC (double strand) [8-mer GGCTTCAC] , test system: che-1 (C55B7.12) (Caenorhabditis elegans) (UniProt Q966L8).
Result :: 0.492

----------
Biological target: ham-2 (C07A12.1) (Caenorhabditis elegans)
Sequence: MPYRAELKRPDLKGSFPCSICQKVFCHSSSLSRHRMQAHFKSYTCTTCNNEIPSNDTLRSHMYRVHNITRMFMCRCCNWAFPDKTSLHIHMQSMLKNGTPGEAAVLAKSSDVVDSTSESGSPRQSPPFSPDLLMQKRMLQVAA
Documented binding signal (PBM E-score (-0.5 to 0.5)) across a set of sequences

// worked examples, binding signal (PBM E-score (-0.5 to 0.5)) included
AAGCTTAA (double strand) [8-mer AAGCTTAA]    0.493
TTAGCTAA (double strand) [8-mer TTAGCTAA]    0.483
AAGCTTAT (double strand) [8-mer AAGCTTAT]    0.487
AAGCTTTA (double strand) [8-mer AAGCTTTA]    0.482
TAAGCTTA (double strand) [8-mer TAAGCTTA]    0.497

Kindly review the next sequence as well.
Query :: For the record ATGCTTAA (double strand) [8-mer ATGCTTAA] , what value of binding signal (PBM E-score (-0.5 to 0.5)) is listed for ham-2 (C07A12.1) (Caenorhabditis elegans)?
Result :: 0.48

----------
# binding signal (PBM E-score (-0.5 to 0.5)) values compiled below
Target: M03D4.4 (M03D4.4) (Caenorhabditis elegans) (UniProt Q21494)
Sequence: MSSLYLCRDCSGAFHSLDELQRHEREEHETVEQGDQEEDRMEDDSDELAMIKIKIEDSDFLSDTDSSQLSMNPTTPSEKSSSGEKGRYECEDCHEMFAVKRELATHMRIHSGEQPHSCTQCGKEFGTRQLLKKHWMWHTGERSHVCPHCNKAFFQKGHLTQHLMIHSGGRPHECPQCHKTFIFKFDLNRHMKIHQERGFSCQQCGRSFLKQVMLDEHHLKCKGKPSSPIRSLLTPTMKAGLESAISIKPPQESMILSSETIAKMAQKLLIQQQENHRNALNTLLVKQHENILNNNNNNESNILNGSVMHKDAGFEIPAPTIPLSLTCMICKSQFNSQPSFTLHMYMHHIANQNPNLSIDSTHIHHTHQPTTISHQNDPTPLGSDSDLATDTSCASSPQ
Reply with just the number.

Solved entries:
TGCATGAA (double strand) [8-mer TGCATGAA]    0.495
GATCATGC (double strand) [8-mer GATCATGC]    0.493

Query :: Look up binding signal (PBM E-score (-0.5 to 0.5)) for this sequence: GTGCATGA (double strand) [8-mer GTGCATGA]
Result :: 0.494

Query :: For the sequence ATCATGCA (double strand) [8-mer ATCATGCA] , what binding signal (PBM E-score (-0.5 to 0.5)) is on record?
Result :: 0.497

Query :: I'd like to know its binding signal (PBM E-score (-0.5 to 0.5)). The sequence in question is ATGCATGA (double strand) [8-mer ATGCATGA]
Result :: 0.499

Query :: Given TCCATGCA (double strand) [8-mer TCCATGCA] , state its recorded binding signal (PBM E-score (-0.5 to 0.5)).
Result :: 0.491
